meta.source: ChEMBL document CHEMBL3352173

- Test system: Staphylococcus aureus
- assayExplanation: Antimicrobial activity against methicillin-sensitive Staphylococcus aureus by broth microdilution/CLSI method
- Assay type: functional
- conditionInfo: Staphylococcus aureus; read-out: MIC
Item-by-item account of MIC

compound	MIC
CO[C@H]1CN(c2nc(CO)c(C(=O)O)s2)CC[C@H]1NC(=O)c1[nH]c(C)c(Cl)c1Cl (racemic)	> 8 µg/mL
CO[C@H]1CN(c2nc(C(N)=O)c(C(=O)O)s2)CC[C@H]1NC(=O)c1[nH]c(C)c(Cl)c1Cl	0.5 µg/mL
CO[C@H]1CN(c2nc(-c3cnccn3)c(C(=O)O)s2)CC[C@H]1NC(=O)c1[nH]c(C)c(Cl)c1Cl	0.031 µg/mL
C=CCO[C@H]1CN(c2ncc(C(=O)O)s2)CC[C@H]1NC(=O)c1[nH]c(C)c(Cl)c1Cl (racemic)	0.5 µg/mL
CO[C@H]1CN(c2nc(-c3ncc[nH]3)c(C(=O)O)s2)CC[C@H]1NC(=O)c1[nH]c(C)c(Cl)c1Cl	0.63 µg/mL
